# Study target: human mAChRM1 (Homo sapiens)
# Construct: host or cells: CHO-K1
# Test details: mAChR M1 cell-based functional assay (calcium mobilization), positive allosteric modulator activity: increase in the EC20 acetylcholine response
# Condition context: PAM mode
Metric name: Emax (%)

1. Cn1cc2c(-c3cc(F)c(CN4Cc5ncccc5C4=O)c(F)c3)ccc(C3(O)CCC3)c2n1 [Compound 96] = 84
2. CC(C)(O)c1ccc(-c2cc(F)c(CN3Cc4ncccc4C3=O)c(C3CC3)c2)cc1 [Compound 10] = 83
3. Cn1cc2c(-c3cc(F)c(CN4Cc5cccc(F)c5C4=O)cc3F)ccc(C(C)(C)O)c2n1 [Compound 163] = 78
4. [2H]C1([2H])c2ncccc2C(=O)N1Cc1ccc(-c2ccc(C(C)(C)O)c3nn(C)cc23)cc1C(C)C [Compound 153] = 35

###

# Study target: human mAChRM1 (Homo sapiens)
# Construct: host or cells: CHO-K1
# Test details: mAChR M1 cell-based functional assay (calcium mobilization), positive allosteric modulator activity: increase in the EC20 acetylcholine response
# Condition context: increase in the EC20 acetylcholine response, read-out: PAM Activity Human M1 EC50
pEC50: −log10 of the molar value.
Decision: pEC50 compared against 6; not below it gives Criterion met, below it gives Criterion not met.

1. CC(C)(O)c1cc2cc(-c3cc(F)c(CN4Cc5ncccc5C4=O)c(F)c3)ccn2n1 = Criterion not met
2. CC(C)(O)c1cc2c(-c3cc(F)c(CN4Cc5ncccc5C4=O)c(F)c3)cccn2n1 = Criterion not met
3. Cn1cc2c(-c3cc(F)c(CN4Cc5ncncc5C4=O)c(F)c3)ccc(C(C)(C)O)c2n1 = Criterion met
4. COc1cc(-c2ccc(C(C)(C)O)cc2)cc(F)c1CN1Cc2cccnc2C1=O = Criterion not met
5. CC(C)(O)c1cc(-c2cc(F)c(CN3Cc4ncccc4C3=O)c(F)c2)c2[nH]nnc2c1 = Criterion not met
6. CC(C)(O)c1c(F)cc(-c2cc(F)c(CN3Cc4ncccc4C3=O)c(F)c2)cc1F = Criterion not met
7. Cn1cc2c(-c3cc(F)c(CN4Cc5ncccc5C4=O)c(N4CCC4)c3)ccc(C(C)(C)O)c2n1 = Criterion met
8. [2H]C1([2H])c2ncccc2C(=O)N1Cc1c(F)cc(-c2ccc(C(C)(C)O)c3nn(C)cc23)cc1F = Criterion met
9. CC(C)(O)c1ccc(-c2ccc(CN3Cc4ncccc4C3=O)c(F)c2)cc1 = Criterion not met
10. Cn1cc2c(-c3cc(F)c(CN4Cc5cccnc5C4=O)c(Cl)c3)ccc(C(C)(C)O)c2n1 = Criterion met
11. Cn1cc2c(-c3cc(F)c(CN4Cc5ncccc5C4=O)c(F)c3)ccc(C3(O)CCOC3)c2n1 (stereo not shown) = Criterion met
12. Cn1cc2c(-c3cnc(CN4Cc5cccnc5C4=O)c(F)c3)ccc(C(C)(C)O)c2n1 = Criterion not met
13. COCCOc1cc(-c2ccc(C(C)(C)O)c3nn(C)cc23)cc(F)c1CN1Cc2cccnc2C1=O = Criterion met
14. Cc1cc(-c2cn(C)nc2C(C)(C)O)ccc1CN1Cc2ncccc2C1=O = Criterion not met
15. Cc1cc(-c2cc(C(C)(C)O)c3nn(C)cc3c2)ccc1CN1Cc2cccc(F)c2C1=O = Criterion not met
16. [2H]C1([2H])c2ncccc2C(=O)N1Cc1c(F)cc(-c2ccc(C(C)(C)O)c3nn(C([2H])([2H])[2H])cc23)cc1F = Criterion met
17. Cn1cc(-c2ccc(CN3Cc4ncccc4C3=O)cc2)c(C(C)(C)O)n1 = Criterion not met
18. Cn1cc2cc(-c3cc(F)c(CN4Cc5ncccc5C4=O)c(Cl)c3)cc(C(C)(C)O)c2n1 = Criterion met
19. [2H]C1([2H])c2ncccc2C(=O)N1Cc1c(F)cc(-c2ccc(C(C)(C)O)c3nn(C)cc23)cc1C1CC1 (single isomer, unassigned) = Criterion met
20. Cn1cc(-c2ccc(CN3Cc4ncccc4C3=O)c(F)c2)c(C(C)(C)O)n1 = Criterion not met
21. Cn1cc2c(-c3cc(F)c(CN4Cc5ncccc5C4=O)c(F)c3)ccc(C3(O)CCOCC3)c2n1 = Criterion met
22. Cc1cc(-c2cc(C(C)(C)O)cc3nn(C)cc23)cc(F)c1CN1Cc2ncccc2C1=O = Criterion not met
23. Cc1cc(-c2ccc(C(C)(C)O)c3nn(C)cc23)cc(F)c1CN1Cc2cccnc2C1=O = Criterion met
24. Cc1c(C(C)(C)O)ccc(-c2cc(F)c(CN3Cc4ncccc4C3=O)c(F)c2)c1F = Criterion not met
25. Cn1cc2c(-c3cc(F)c(CN4Cc5ncccc5C4=O)c(F)c3)ccc(C3(O)CCC3)c2n1 = Criterion met

###

# Study target: human mAChRM1 (Homo sapiens)
# Construct: host or cells: CHO-K1
# Sequence (P11229 1-460): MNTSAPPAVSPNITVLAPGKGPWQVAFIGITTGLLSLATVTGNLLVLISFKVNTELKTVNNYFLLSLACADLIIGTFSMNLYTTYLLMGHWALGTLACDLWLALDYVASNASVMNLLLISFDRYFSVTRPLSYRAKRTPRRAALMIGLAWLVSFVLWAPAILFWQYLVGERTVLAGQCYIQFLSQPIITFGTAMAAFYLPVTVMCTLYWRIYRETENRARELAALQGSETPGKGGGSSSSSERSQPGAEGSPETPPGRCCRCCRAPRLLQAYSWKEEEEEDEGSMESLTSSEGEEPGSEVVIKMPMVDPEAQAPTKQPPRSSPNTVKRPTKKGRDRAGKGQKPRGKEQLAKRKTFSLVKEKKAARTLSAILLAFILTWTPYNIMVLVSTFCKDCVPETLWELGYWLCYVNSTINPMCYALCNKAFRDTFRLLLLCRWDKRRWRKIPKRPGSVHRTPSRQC
# Test details: mAChR M1 cell-based functional assay (calcium mobilization), positive allosteric modulator activity: increase in the EC20 acetylcholine response
# Condition context: PAM mode
Rule: measured Emax below 80% gets label 1; anything equal to or greater than 80% gets label 0.

1. Cn1cc2c(-c3cc(F)c(CN4Cc5ccccc5C4=O)c(F)c3)ccc(C(C)(C)O)c2n1 = label 0
2. Cn1cc2c(-c3ccc(CN4Cc5ncccc5C4=O)c(F)c3F)ccc(C(C)(C)O)c2n1 = label 1
3. Cn1cc2c(-c3cc(F)c(CN4Cc5ncccc5C4=O)c(F)c3)ccc(C3(O)CNC3)c2n1 = label 1
4. Cc1cc(-c2ccc(C(C)(C)O)cc2)cc(F)c1CN1Cc2cccnc2C1=O = label 1
5. CC(C)(O)c1cc(-c2ccc(CN3Cc4ncccc4C3=O)c(F)c2)c2[nH]nnc2c1 = label 1
6. [2H]C([2H])([2H])C(C)(O)c1ccc(-c2cc(F)c(CN3Cc4ncccc4C3=O)c(F)c2)c2cn(C)nc12 (stereo not shown) = label 0
7. [2H]C([2H])([2H])n1cc2c(-c3cc(F)c(CN4Cc5ncccc5C4=O)c(F)c3)ccc(C(C)(C)O)c2n1 = label 0
8. Cn1cc2c(-c3cc(F)c(CN4Cc5ncccc5C4=O)c(C4CC4)c3)ccc(C(C)(C)O)c2n1 = label 0
9. Cn1cc2cc(-c3cc(F)c(CN4Cc5cccc(F)c5C4=O)c(Cl)c3)cc(C(C)(C)O)c2n1 = label 1
10. Cn1nc(-c2cc(F)c(CN3Cc4ncccc4C3=O)c(F)c2)c2ccc(C(C)(C)O)cc21 = label 1
11. CC[C@@](C)(O)c1ccc(-c2cc(F)c(CN3Cc4ncccc4C3=O)c(F)c2)c2cn(C)nc12 = label 0
12. Cn1nc(C(C)(C)O)cc1-c1cc(F)c(CN2Cc3ncccc3C2=O)c(C2CC2)c1 = label 1
13. Cn1cc2c(-c3cc(F)c(CN4Cc5ncccc5C4=O)c(F)c3)ccc(C(C)(O)C3CC3)c2n1 (stereo not shown) = label 0
14. Cn1cc2c(-c3cc(F)c(CN4Cc5ncccc5C4=O)c(F)c3)ccc(C3(O)CC(F)(F)C3)c2n1 = label 1
15. Cc1cc(-c2cc(C(C)(C)O)nn2C)ccc1CN1Cc2ncccc2C1=O = label 1
16. CC(C)(O)c1ccc(-c2cc(F)c(CN3Cc4ncccc4C3=O)c(F)c2)cc1Cl = label 1
17. Cn1cc(-c2cc(F)c(CN3Cc4ncccc4C3=O)c(F)c2)c(C(C)(C)O)n1 = label 1
18. Cn1cc2cc(-c3ccc(CN4Cc5cccc(F)c5C4=O)c(F)c3)cc(C(C)(C)O)c2n1 = label 1
19. Cc1cc(-c2ccc(C(C)(C)O)c3nn(C)cc23)ccc1CN1Cc2cccnc2C1=O = label 0
20. CC(C)(O)c1c(F)cc(-c2cc(F)c(CN3Cc4ncccc4C3=O)c(F)c2)cc1F = label 1
21. Cn1cc2c(-c3cnc(CN4Cc5cccnc5C4=O)c(F)c3)ccc(C(C)(C)O)c2n1 = label 0
22. Cn1cc2c(-c3cc(F)c(CN4Cc5ncc(C6CC6)cc5C4=O)c(F)c3)ccc(C(C)(C)O)c2n1 = label 1
23. Cn1cc(-c2cc(F)c(CN3Cc4ncccc4C3=O)c(F)c2)c2ccc(C(C)(C)O)cc21 = label 1
24. Cc1cc(-c2ccc(C(C)(C)O)c3ccccc23)cc(F)c1CN1Cc2ncccc2C1=O = label 1
25. Cn1cc2c(-c3ccc(CN4Cc5cccnc5C4=O)cc3)ccc(C(C)(C)O)c2n1 = label 0
26. CCC(O)(CC)c1ccc(-c2cc(F)c(CN3Cc4ncccc4C3=O)c(F)c2)c2cn(C)nc12 = label 1
27. CN(C)c1cc(-c2ccc(C(C)(C)O)c3nn(C)cc23)cc(F)c1CN1Cc2cccnc2C1=O = label 1
28. CC(C)(O)c1ccc(-c2cc(F)c(CN3Cc4ncccc4C3=O)c(F)c2)c2c1OCO2 = label 1
